Origin of measurements: the RNAGym collection of RNA variant scans (doi:10.1093/nar/gkz1192)

B1: CPEB3 Ribozyme (parent)
chain: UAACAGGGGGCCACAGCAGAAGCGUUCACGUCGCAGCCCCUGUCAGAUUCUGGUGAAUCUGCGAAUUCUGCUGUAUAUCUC

variants of: B1; assay: self-cleavage, relative activity (ratio to wild type); higher = more cleavage; in vitro, sequencing
Outcome: t for self-cleavage of at least 0.4; f for anything lower.

UAACAGGGAGCCACAGCAGAACCGUUCACGUCGCAGCCCCUGUCAGAUUCUGGUGAAUCUGCGAAUUCUGCUGUAUAUCUC
f

Could you please find out whether CAACAGGGGGCCACAGCAGAAGCGUUUACGUCGCAGCCCCUGUCAGAUUCUGGUGAAUCUGCGAAUUCUGCUGUAUAUCUC has self-cleavage that meets 0.4 or exceeds it?
f

Textbook exercise: given the entry UAGCAGGGGGCCACAGCAGAAGCGUUCACGUCGCAGCCCCUGUCAGAUUCAGGUGAAUCUGCGAAUUCUGCUGUAUAUCUC , state whether its self-cleavage is greater than or equal to 0.4.
t

Does self-cleavage meet or surpass 0.4 for UAACAGGGGGCCACAGCAGAAGCGUUCACGUCGCAGCCCCUGUCAGAGUCUGGUGGAUCUGCGAAUUCUGCUGUAUAUCUC ?
f

Reported self-cleavage at or above 0.4? UAACAGGGGGCCACAGCAGAAGCGUUCACGUCGCAGCCACUGUCAGAUUCUGGUGAAUCUGCGAAUUCUGCUGUAUAUCUG
f

self-cleavage >= 0.4 for UAACAGGGGGCCACAACAGAAGCGUUCACGUCGCAGCCCCUGUCAGAUUCUGGUGAAUCUGCGAAUUCUGCUGAAUAUCUC ?
t
